The reported measurements were obtained from ChEMBL document CHEMBL1154653.

Target: 5-hydroxytryptamine receptor 1A (Homo sapiens) (UniProt P08908)
Sequence (whole entry): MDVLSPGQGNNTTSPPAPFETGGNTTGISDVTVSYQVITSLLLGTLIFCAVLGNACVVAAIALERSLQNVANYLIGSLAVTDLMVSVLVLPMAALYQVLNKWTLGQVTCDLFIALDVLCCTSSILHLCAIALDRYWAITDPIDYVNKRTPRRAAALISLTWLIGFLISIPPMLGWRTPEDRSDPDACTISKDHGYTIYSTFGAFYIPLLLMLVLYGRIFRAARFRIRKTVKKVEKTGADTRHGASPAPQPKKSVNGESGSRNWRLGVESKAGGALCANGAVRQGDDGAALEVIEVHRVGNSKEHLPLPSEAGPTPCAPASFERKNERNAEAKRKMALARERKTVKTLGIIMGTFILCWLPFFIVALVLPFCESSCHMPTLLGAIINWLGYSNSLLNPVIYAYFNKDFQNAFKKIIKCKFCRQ
Experiment: Partial agonist activity at human 5HT1A expressed in HEK293 cells by FLIPR assay relative to 5HT
Assay type: functional, cell-based
Measurement Name: Emax

# annotated cases, reported Emax shown
* Fc1cccc(C2CCNCC2)c1Oc1ccccc1 | 35%
* Fc1cccc(Oc2cccc(F)c2C2CCNCC2)c1 | 74%
* Fc1cccc(Oc2ccccc2C2CCNCC2)c1 | 51%

Now examine the next entry.
Enquiry: Param readout= Emax; system= 5-hydroxytryptamine receptor 1A (Homo sapiens) (UniProt P08908); entry= `Clc1cccc(Oc2ccccc2C2CCNCC2)c1` ; returns value.
Return: 44%

----------
target: UniProt Q01959
Sequence (Q01959 whole entry): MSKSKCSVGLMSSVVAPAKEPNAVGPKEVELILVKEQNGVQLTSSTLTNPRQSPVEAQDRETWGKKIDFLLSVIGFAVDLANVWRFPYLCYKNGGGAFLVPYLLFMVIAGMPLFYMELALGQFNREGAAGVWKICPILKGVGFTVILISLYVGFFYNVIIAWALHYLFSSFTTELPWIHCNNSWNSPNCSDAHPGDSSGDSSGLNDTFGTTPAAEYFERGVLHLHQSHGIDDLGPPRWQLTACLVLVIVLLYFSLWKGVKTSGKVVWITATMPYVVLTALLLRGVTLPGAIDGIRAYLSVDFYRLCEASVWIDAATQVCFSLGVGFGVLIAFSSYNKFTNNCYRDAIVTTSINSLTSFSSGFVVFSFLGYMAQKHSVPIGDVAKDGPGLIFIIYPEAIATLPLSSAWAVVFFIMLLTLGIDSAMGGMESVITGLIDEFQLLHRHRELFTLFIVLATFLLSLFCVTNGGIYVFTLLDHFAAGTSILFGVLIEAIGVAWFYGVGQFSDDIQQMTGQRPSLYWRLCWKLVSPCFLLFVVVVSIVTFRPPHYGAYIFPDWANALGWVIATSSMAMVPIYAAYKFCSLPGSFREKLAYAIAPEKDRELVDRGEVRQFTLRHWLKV
pKi: −log10 of the molar value.
Response key: true (1) means pKi >= 6; false (0) means pKi < 6.

Consider the following illustrative entries.
* Fc1ccccc1COc1ccccc1N1CCNCC1 | false (0)
* Fc1cccc(Oc2ccccc2)c1C1CCNCC1 | true (1)
* Cc1ccc(C2CCNCC2)c(Oc2ccc(F)cc2)c1 | false (0)
* Fc1cccc(OCc2ccccc2N2CCNCC2)c1 | false (0)

Enquiry: Is the recorded value of pKi equal to or greater than 6 for this molecule? `c1ccc(Oc2ccccc2N2CCNCC2)cc1`
Return: false (0)

----------
biological target: Sodium-dependent noradrenaline transporter (Homo sapiens); experiment: Inhibition of norepinephrine uptake at human NET expressed in HEK293 cells
Sequence (P23975 whole entry): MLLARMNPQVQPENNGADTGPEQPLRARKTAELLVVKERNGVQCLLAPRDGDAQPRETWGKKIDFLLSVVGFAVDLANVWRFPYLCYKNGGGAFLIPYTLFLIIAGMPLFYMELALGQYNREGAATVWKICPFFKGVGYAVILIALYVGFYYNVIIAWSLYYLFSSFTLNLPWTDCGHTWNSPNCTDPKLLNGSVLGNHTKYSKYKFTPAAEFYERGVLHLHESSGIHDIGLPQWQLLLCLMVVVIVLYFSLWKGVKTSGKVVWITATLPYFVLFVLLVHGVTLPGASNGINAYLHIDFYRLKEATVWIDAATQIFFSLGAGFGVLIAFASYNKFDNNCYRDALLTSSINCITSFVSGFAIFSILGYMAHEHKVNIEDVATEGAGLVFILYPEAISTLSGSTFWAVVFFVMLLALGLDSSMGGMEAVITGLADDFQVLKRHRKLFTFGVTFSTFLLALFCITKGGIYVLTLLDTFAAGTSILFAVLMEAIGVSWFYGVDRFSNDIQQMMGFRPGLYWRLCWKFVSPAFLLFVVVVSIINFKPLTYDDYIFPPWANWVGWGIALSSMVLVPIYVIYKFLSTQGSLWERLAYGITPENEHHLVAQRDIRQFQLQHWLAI
Measurement Name: EC50
The number alone won't do; follow it with the unit.

Enquiry: Given `Fc1cccc(C2CCNCC2)c1Oc1ccccc1` , state its recorded EC50.
Return: 358 nM

----------
target: Sodium-dependent noradrenaline transporter (Homo sapiens)
Threshold-based label: Ki under 600 nM gives satisfied, Ki not under 600 nM gives not satisfied.

Enquiry: Please state whether Ki is below 600 nM for `Fc1cccc(OCc2ccccc2C2CCNCC2)c1`
Return: not satisfied

Enquiry: How about this molecule: `O=C1/C(=C/c2ccccc2N2CCNCC2)SCCN1c1ccc(F)cc1F`
Return: not satisfied

Enquiry: How about this molecule: `c1ccc(OCc2ccccc2C2CCNCC2)cc1`
Return: not satisfied

Enquiry: How about this molecule: `Fc1cccc(C2CCNCC2)c1Oc1ccccc1`
Return: not satisfied

Enquiry: How about this molecule: `Cc1ccc(F)c(Oc2ccccc2C2CCNCC2)c1`
Return: satisfied

Enquiry: How about this molecule: `Fc1ccc(COc2ccc(Cl)cc2C2CCNCC2)cc1`
Return: satisfied

Enquiry: How about this molecule: `Fc1cccc(OCc2ccccc2N2CCNCC2)c1`
Return: satisfied
